test system: SW626; test: Confirmatory qHTS for gynecologic anti-cancer compounds from libraries of approved drugs and bioactive compounds; conditions: gynecologic cancer cell panel viability, ATPlite luminescence, 48 h; series mostly up to 57.6 µM; also: nearly all actives have a fitted effect of over 55% in size
Inconclusive results are not listed. The source made the active and inactive calls. Calls follow the shape of the dose curve; as a rule, active = well fitted cell-killing curve with a large enough effect; inconclusive = small, poorly fitted or top-dose-only effect, or effect the other way; inactive = no such curve, though single readings can be large or run the other way.
Labels: active, inactive

{"compound": "CN(c1nccc(=O)[nH]1)C1CCN(c2nc3ccccc3n2Cc2ccc(F)cc2)CC1", "classification": "inactive"}
{"compound": "CC(=O)OC12COC1CC(O)C1(C)C(=O)C(O)C3=C(C)C(OC(=O)C(O)C(NC(=O)OC(C)(C)C)c4ccccc4)CC(O)(C(OC(=O)c4ccccc4)C21)C3(C)C (configuration not stated)", "classification": "inactive"}
{"compound": "COc1ccc2c(c1OC)C(=O)O[C@@H]2[C@H]1c2c(cc3c(c2OC)OCO3)CCN1C", "classification": "inactive"}
{"compound": "O=C(CCCCCCNC(=O)c1cnc(N(c2ccccc2)c2ccccc2)nc1)NO", "classification": "active"}
{"compound": "Cc1ccc(C(=O)Nc2ccc(CN3CCN(C)CC3)c(C(F)(F)F)c2)cc1C#Cc1cnc2[nH]ncc2c1", "classification": "active"}
{"compound": "FC(F)(F)c1ccc(/C=C/c2nc(COc3ccc(CCCCn4ccnn4)cc3)co2)cc1", "classification": "inactive"}
{"compound": "CCCCc1oc2ccccc2c1C(=O)c1cc(I)c(OCCN(CC)CC)c(I)c1", "classification": "active"}
{"compound": "O=C1NC(=O)C(c2cnc3ccccn23)=C1c1cn2c3c(cccc13)CN(C(=O)N1CCOCC1)CC2", "classification": "inactive"}
{"compound": "Cc1cc(C2CCCCC2)n(O)c(=O)c1", "classification": "active"}
{"compound": "CCOc1ccc(Nc2nc(-c3c(C)nc4ccccn34)cs2)cc1", "classification": "inactive"}
{"compound": "COC(C(=O)N1Cc2[nH]nc(NC(=O)c3ccc(N4CCN(C)CC4)cc3)c2C1)c1ccccc1 (configuration not stated)", "classification": "inactive"}
{"compound": "CCCCN(CCCC)C(=O)CN1C[C@H](c2ccc3c(c2)OCO3)[C@@H](C(=O)O)[C@@H]1c1ccc(OC)cc1", "classification": "inactive"}
{"compound": "CC(C)C[C@H](NC(=O)[C@H](Cc1ccccc1)NC(=O)c1cnccn1)B(O)O", "classification": "active"}
{"compound": "NS(=O)(=O)c1ccc(Nc2nc(OCC3CCCCC3)c3[nH]cnc3n2)cc1", "classification": "inactive"}
{"compound": "C[C@@]1(C(=O)Nc2ccc(F)nc2)CCCN1c1nc(Nc2cc(C3CC3)[nH]n2)c2cccn2n1", "classification": "inactive"}
{"compound": "CC1=C(CO)C(=O)O[C@@H]([C@@H](C)[C@H]2CC[C@H]3[C@@H]4C[C@H]5O[C@]56[C@@H](O)C=CC(=O)[C@]6(C)[C@H]4CC[C@]23C)C1", "classification": "active"}
{"compound": "O=C1N(c2ccccc2)c2ccccc2C1(Cc1ccncc1)Cc1ccncc1", "classification": "inactive"}
{"compound": "CC(C)CC(=O)Nc1n[nH]c2c1CN(C(=O)C1CCN(C)CC1)C2(C)C", "classification": "inactive"}
{"compound": "CC[C@@]1(O)C(=O)OCc2c1cc1n(c2=O)Cc2cc3cc(O)ccc3nc2-1", "classification": "active"}
{"compound": "C[C@]12CCC(=O)C=C1[C@@H]1C[C@@H]1[C@H]1[C@@H]3[C@@H]4C[C@@H]4[C@@]4(CCC(=O)O4)[C@@]3(C)CC[C@@H]12", "classification": "inactive"}
{"compound": "OCCNC1CCCc2c1[nH]c1ccc(-c3ccccc3)cc21 (configuration not stated)", "classification": "active"}
{"compound": "CC(C)c1nn(-c2c(Cl)cccc2Cl)c2nc(Cc3ccc(OCCO)cc3)[nH]c(=O)c12", "classification": "inactive"}
{"compound": "Cc1nc2ccc(CN(C)c3ccc(C(=O)NC(CCC(=O)O)C(=O)O)s3)cc2c(=O)[nH]1 (configuration not stated)", "classification": "inactive"}
{"compound": "COc1cc(N2CCC(N(C)C)CC2)ccc1Nc1ncc(Cl)c(Nc2ccccc2P(C)(C)=O)n1", "classification": "active"}
{"compound": "COC(=O)c1ccc2c(C(=Nc3ccc(N(C)C(=O)CN4CCN(C)CC4)cc3)c3ccccc3)c(O)[nH]c2c1", "classification": "active"}
{"compound": "Cc1ccc(C(=O)Nc2ccc(CN3CCN(C)CC3)c(C(F)(F)F)c2)cc1C#Cc1cnc2cccnn12", "classification": "active"}
{"compound": "Cc1cc(Nc2cc(N3CCN(C)CC3)nc(/C=C/c3ccccc3)n2)n[nH]1", "classification": "active"}
{"compound": "CNC1CCC(N(Cc2cccc(-c3ccncc3)c2)C(=O)c2sc3ccccc3c2Cl)CC1 (configuration not stated)", "classification": "active"}
{"compound": "COc1cc(-c2nn(C3CCC(N4CCN(C(C)=O)CC4)CC3)c3ncnc(N)c23)ccc1NC(=O)c1cc2ccccc2n1C (configuration not stated)", "classification": "active"}
{"compound": "CN(C)CC/C=C1\\c2ccccc2COc2ccccc21", "classification": "inactive"}
{"compound": "CCN[C@H]1C[C@H](C)S(=O)(=O)c2sc(S(N)(=O)=O)cc21", "classification": "inactive"}
{"compound": "CCN(CC)CCOc1ccc(/C(=C(\\Cl)c2ccccc2)c2ccccc2)cc1", "classification": "active"}
{"compound": "CN(C)/N=N/c1nc[nH]c1C(N)=O", "classification": "inactive"}
{"compound": "Cn1c(=O)c(F)c(Nc2ccc(I)cc2F)c2c(=O)n(CC(O)CO)cnc21 (configuration not stated)", "classification": "active"}
{"compound": "CN(NC(=O)CC(=O)NN(C)C(=S)c1ccccc1)C(=S)c1ccccc1", "classification": "active"}
{"compound": "CN(C)C(CCOc1cccc2ccccc12)c1ccccc1 (configuration not stated)", "classification": "inactive"}
{"compound": "Cc1ccc(C(=O)N(CCCN)C(c2oc3cc(Cl)ccc3c(=O)c2Cc2ccccc2)C(C)C)cc1 (configuration not stated)", "classification": "active"}
